For each record, write down the corresponding growth.
tested on: SW-620 colon; assay: NCI-60 one-dose screen, 48 h (100 = growth as untreated, 0 = no growth, -100 = all killed); settings: 10 µM unless noted
Compounds without any hit were thinned out: in the full panel of roughly 83,000, 20% have a hit.
Express it in %; write the number only.

stdin: Item under review: "CNC(=O)c1cncc(Cn2nc(C)c(NC(=O)c3ccc(COc4ccc(C(F)(F)F)cc4C)cc3)c2C)c1" . Reported growth?
stdout: 102

stdin: Item under review: "CCN(CC)CC[n+]1cc2cc(OC)c(OC)cc2c2ccc3cc4c(cc3c21)OCO4" . Reported growth?
stdout: 9.98

stdin: Item under review: NC(=S)N1N=C(c2ccccc2)CC1c1cn(-c2ccccc2)nc1-c1ccc(OCc2ccccc2)cc1 (centres undefined) . Reported growth?
stdout: 106

stdin: Item under review: "CCCOC(=O)N[C@H]1CCc2c(Cl)c(OC)c(OC)c(OC)c2-c2ccc(SC)c(=O)cc21" . Reported growth?
stdout: 20.2
